experiment: Pharmacokinetic measurements in rats (i.v., i.t., oral); type: in vivo; conditions: rat, i.t. dose 0.1 (nintedanib 0.42), 6 h
Structures can show the parent of a compound that is named as a salt.
Would you mind telling me the reported BAL % administered dose at time 6 h of each entry?

Name the reported BAL % administered dose at time 6 h value associated with the compound COC(=O)c1cc2c(cc1C)/C(=C(/Nc1ccc(C(=O)NCCN3CCNC(=O)C3)cc1)c1ccccc1)C(=O)N2 [Example 9]
2.3%

Name the reported BAL % administered dose at time 6 h value associated with the compound COC(=O)c1cc2c(cc1C)/C(=C(/Nc1ccc(C(=O)NC3CCN(C)CC3)cc1)c1ccccc1)C(=O)N2 [Example 18, formate]
0.4%

Name the reported BAL % administered dose at time 6 h value associated with the compound COC(=O)c1cc2c(cc1C)/C(=C(/Nc1ccc(C(=O)NCCN3CCC(N(C)C)CC3)cc1)c1ccccc1)C(=O)N2 [Example 6]
1.1%

Name the reported BAL % administered dose at time 6 h value associated with the compound COC(=O)c1cc2c(cc1C)/C(=C(/Nc1ccc(C(=O)NCC(=O)N3CCN(CCO)CC3)cc1)c1ccccc1)C(=O)N2 [Example 7]
0.1%

Name the reported BAL % administered dose at time 6 h value associated with the compound COC(=O)c1cc2c(cc1C)/C(=C(/Nc1ccc(C(=O)NCC3CCN(C)CC3)cc1)c1ccccc1)C(=O)N2 [Example 3, formate]
0.7%

Name the reported BAL % administered dose at time 6 h value associated with the compound COC(=O)c1cc2c(cc1C)/C(=C(/Nc1ccc(C(=O)NCCN3CCCN(C)CC3)cc1)c1ccccc1)C(=O)N2 [Example 5]
0.2%

Name the reported BAL % administered dose at time 6 h value associated with the compound COC(=O)c1cc2c(cc1C)/C(=C(/Nc1ccc(C(=O)NCCN3CCN(C)CC3)cc1)c1ccccc1)C(=O)N2 [Example 4]
0.4%
